TEST TARGET: Human Serum Albumin (HSA) (Homo sapiens, UniProt P02768)
Sequence (P02768 25-609): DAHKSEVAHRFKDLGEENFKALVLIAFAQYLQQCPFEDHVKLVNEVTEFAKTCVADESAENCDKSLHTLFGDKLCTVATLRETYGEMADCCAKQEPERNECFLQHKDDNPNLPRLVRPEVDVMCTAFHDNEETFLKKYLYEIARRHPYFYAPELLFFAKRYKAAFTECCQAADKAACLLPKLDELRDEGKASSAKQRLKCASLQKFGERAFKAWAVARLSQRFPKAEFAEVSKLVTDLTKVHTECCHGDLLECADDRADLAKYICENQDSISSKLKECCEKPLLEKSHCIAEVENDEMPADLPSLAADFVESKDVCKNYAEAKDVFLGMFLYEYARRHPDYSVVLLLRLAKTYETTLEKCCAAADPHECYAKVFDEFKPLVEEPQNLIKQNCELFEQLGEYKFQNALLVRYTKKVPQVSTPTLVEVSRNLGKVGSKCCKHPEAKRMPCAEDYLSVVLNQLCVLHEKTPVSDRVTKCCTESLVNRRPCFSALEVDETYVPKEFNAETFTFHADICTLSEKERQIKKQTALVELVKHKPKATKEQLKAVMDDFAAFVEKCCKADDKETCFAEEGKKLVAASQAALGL
EXPERIMENTAL DETAILS: Fluorescence quenching of HSA (Stern-Volmer and double-logarithmic plots)
Kindly state Kd for each of the entries shown.

Task: # lookup: Kd of Cc1ccc(C(C)C)cc1O
Result: ~100 µM

Task: Cool, now C=CC(C)(O)CCC=C(C)C (centres unmarked)
Result: ~100 µM
